target: Retinoic acid receptor gamma (Homo sapiens, UniProt P13631); test: Antagonistic activity was evaluated in terms of inhibition of Retinoic acid receptor gamma transactivation by ATRA (50 nM); Not detectable; assay type: functional
Sequence (P13631 whole entry): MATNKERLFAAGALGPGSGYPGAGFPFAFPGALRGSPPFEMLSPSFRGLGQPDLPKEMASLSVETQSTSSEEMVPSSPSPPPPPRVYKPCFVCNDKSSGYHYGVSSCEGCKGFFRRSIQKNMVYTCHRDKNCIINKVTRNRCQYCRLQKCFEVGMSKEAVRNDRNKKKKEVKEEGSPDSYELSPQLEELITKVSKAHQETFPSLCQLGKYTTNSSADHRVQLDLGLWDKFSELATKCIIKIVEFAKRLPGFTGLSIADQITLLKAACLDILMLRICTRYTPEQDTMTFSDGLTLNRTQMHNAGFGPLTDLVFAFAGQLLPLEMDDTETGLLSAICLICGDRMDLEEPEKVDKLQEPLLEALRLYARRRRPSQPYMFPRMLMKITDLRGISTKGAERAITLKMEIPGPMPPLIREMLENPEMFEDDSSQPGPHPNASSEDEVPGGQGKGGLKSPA
pIC50: −log10 of the molar value.
ATTRIBUTE MEASURED: pIC50

Lookup: For the molecule shown here, CC(C)c1cccc2c(-c3ccccc3)cc(-c3ccc(-c4ccc(C(=O)O)cc4)[nH]3)nc12 , give the reported pIC50.
Found: < 5.52

====

Target: Retinoic acid receptor alpha (Homo sapiens) (UniProt P10276)
Sequence (whole entry): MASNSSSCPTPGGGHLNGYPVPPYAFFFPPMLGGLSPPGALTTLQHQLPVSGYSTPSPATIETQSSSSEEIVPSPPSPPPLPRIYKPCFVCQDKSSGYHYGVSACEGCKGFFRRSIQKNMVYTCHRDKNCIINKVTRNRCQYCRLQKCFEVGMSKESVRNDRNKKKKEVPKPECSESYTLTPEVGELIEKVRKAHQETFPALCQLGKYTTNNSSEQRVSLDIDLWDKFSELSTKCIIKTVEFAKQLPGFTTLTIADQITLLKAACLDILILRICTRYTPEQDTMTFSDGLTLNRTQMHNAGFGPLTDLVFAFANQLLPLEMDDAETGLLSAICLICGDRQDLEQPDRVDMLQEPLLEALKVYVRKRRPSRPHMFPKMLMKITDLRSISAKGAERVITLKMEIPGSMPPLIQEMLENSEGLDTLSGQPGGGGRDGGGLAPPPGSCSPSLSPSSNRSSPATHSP
Assay: In vitro binding affinity towards Retinoic acid receptor alpha evaluated relative to that of All-trans retinoic acids(Mean of ATRA IC50 = 0.66 nM)
If the reported Relative IC50 equals or exceeds 2, assign fulfilled. If not, assign not fulfilled.

Some solved entries appear below for comparison.
COMPOUND SMILES: COc1cc(-c2ccc(-c3ccc(C(=O)O)cc3)[nH]2)nc2c(C(C)C)cccc12
CATEGORY LABEL: not fulfilled
//
COMPOUND SMILES: CC(C)c1cccc2c(Cl)cc(-c3ccc(-c4ccc(C(=O)O)cc4)[nH]3)nc12
CATEGORY LABEL: not fulfilled
//
COMPOUND SMILES: CC(C)c1cccc2c(-c3ccccc3)cc(-c3ccc(-c4ccc(C(=O)O)cc4)[nH]3)nc12
CATEGORY LABEL: not fulfilled

Lookup: # bool: Relative IC50 of Cc1cc(-c2ccc(-c3ccc(C(=O)O)cc3)[nH]2)nc2c(C(C)C)cccc12 >= 2
Found: not fulfilled

Lookup: # bool: Relative IC50 of CC(C)c1cccc2ccc(-c3ccc(-c4ccc(C(=O)O)cc4)[nH]3)nc12 >= 2
Found: fulfilled

Lookup: # bool: Relative IC50 of CCc1cc(-c2ccc(-c3ccc(C(=O)O)cc3)[nH]2)nc2c(C(C)C)cccc12 >= 2
Found: not fulfilled
